# Tested on: A549 cells
# method.summary: Cytotoxicity against A549 cells, Alamar Blue
# Type: cell-based
# condition.label: Homo sapiens, A549, 65 h; Supplementary Table 1; compound 0.5 mM; percentage of controls (n=1)
experimental.readout: viability at 500 µM

{"compound": "COC(=O)c1cccs1 [compound 138, methyl thiophene‐2‐carboxylate]", "experimental.result": "121%"}
{"compound": "Cc1nc(C(=O)O)cs1", "experimental.result": "109%"}

Could you report viability at 500 µM for every entry in the following list?
1. OCc1cccc(-c2ccncc2)c1
2. O=C(O)c1ccncc1
3. NC(=S)Nc1ccncc1
4. Clc1ccc2nonc2c1
5. Nc1cccc(-c2ccsc2)c1
6. O=C(O)[C@H]1CCCN1
7. CC(C)(C)C(=O)Nc1ccncc1 [compound 439, 2,2‐dimethyl‐N‐(4‐pyridinyl)propanamide]

1. 66.8%
2. 118%
3. 59.6%
4. 68.9%
5. 83.3%
6. 78.6%
7. 65%

Could you report viability at 500 µM for every entry in the following list?
1. NCc1ccc(N2CCCC2)cc1 [compound 414, [4‐(1‐pyrrolidinyl)phenyl]methanamine]
2. OCc1ccc(OC(F)(F)F)cc1 [compound 563, [4‐(trifluoromethoxy)phenyl]methanol]
3. Cc1noc(C)c1C#N
4. Cc1nc(C(C)(C)C)cs1
5. CNCc1cccc(-c2cccnc2)c1

1: 96.8%; 2: 92.9%; 3: 84.5%; 4: 65.6%; 5: 69.8%

Could you report viability at 500 µM for every entry in the following list?
1. N#Cc1cnccc1C(F)(F)F
2. CCOC(=O)C1CCNCC1 [compound 245, ethyl piperidine‐4‐carboxylate]
3. Cn1ccc(C(F)(F)F)n1

129%
99%
58.4%

* * *

# System: A549 cells
# method.summary: Cytotoxicity against A549 cells, Alamar Blue
# Assay type: cell-based
# condition.label: Homo sapiens, A549, 65 h; Supplementary Table 1; compound 0.5 mM; percentage of controls (n=1)
Give viability at 500 µM for every item shown.
A bare number is not enough; add the unit after it.

{"compound": "O=C(O)Cc1ccc(Cl)c(Cl)c1 [compound 659, 2‐(3,4‐dichlorophenyl)acetic acid]", "viability at 500 µM": "106%"}

Could you report viability at 500 µM for every entry in the following list?
1. Cc1cc(C(=O)O)c(C(F)(F)F)o1 [compound 583]
2. Nc1ccc(CN2CCOCC2)cc1 [compound 567, 4‐(morpholinomethyl)aniline]
3. Cn1nc(-c2ccccc2)cc1N [compound 376, 1‐methyl‐3‐phenyl‐1H‐pyrazol‐5‐amine]

1. 59.6%
2. 103%
3. 64.7%

* * *

# subject.of.test: TbINO1 (Trypanosoma brucei brucei)
# Sequence (Q5QQ46 whole entry): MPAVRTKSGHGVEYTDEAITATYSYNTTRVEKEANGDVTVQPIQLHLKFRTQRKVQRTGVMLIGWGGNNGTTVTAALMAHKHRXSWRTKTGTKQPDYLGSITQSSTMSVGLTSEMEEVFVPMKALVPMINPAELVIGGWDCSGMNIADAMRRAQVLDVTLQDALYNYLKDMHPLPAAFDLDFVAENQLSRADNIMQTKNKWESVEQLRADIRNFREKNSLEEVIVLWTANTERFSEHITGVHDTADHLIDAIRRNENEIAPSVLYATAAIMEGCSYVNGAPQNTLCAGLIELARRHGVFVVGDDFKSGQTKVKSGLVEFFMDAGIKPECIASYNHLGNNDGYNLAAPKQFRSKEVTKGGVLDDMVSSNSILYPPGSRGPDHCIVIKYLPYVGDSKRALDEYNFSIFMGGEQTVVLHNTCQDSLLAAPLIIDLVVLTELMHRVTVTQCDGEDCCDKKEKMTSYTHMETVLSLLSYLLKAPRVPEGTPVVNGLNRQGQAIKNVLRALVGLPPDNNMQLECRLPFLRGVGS
# method.summary: biochemical
# Type: binding
# condition.label: Supplementary Table 1; compound 1mM; mean ± SD from Boltzman curve fitting
Give Tb Ino1 Tm Shift [˚C] for every item shown.
One number for each entry, in °C.

As a guide, the following entries are already answered.
{"compound": "Cl.NCc1ccc2c(c1)CCO2", "subject.of.test": "TbINO1 (Trypanosoma brucei brucei)", "result.unit": "°C", "Tb Ino1 Tm Shift [˚C]": 0.06}
{"compound": "CN1N=C(C(F)(F)F)CC1=O", "subject.of.test": "TbINO1 (Trypanosoma brucei brucei)", "result.unit": "°C", "Tb Ino1 Tm Shift [˚C]": 0.09}
{"compound": "CNCc1ccc2c(c1)OCO2", "subject.of.test": "TbINO1 (Trypanosoma brucei brucei)", "result.unit": "°C", "Tb Ino1 Tm Shift [˚C]": 1.12}

Could you report Tb Ino1 Tm Shift [˚C] for every entry in the following list?
1. CC1(C)Cc2cccc(C(=O)O)c2O1
2. N#CCCNCC1CCCO1 (centres unmarked)
3. Cc1nn(C)c(C)c1CN
4. Cl.c1ccc2c(c1)CCNC2
5. CC(=O)c1ccc2c(c1)OCCO2
6. CC1=NNC(=O)CC1
7. Cc1nc(-c2ccc(CO)cc2)cs1
8. CN(C)C1(CN)CCSC1 (centres unmarked)

0.35
0.21
0.22
0.37
0.13
0.22
0.4
0.32

Could you report Tb Ino1 Tm Shift [˚C] for every entry in the following list?
1. Cc1cc(C(N)=S)n(C)n1
2. CN1C2CCC1CC(=NO)C2.Cl

0.57
0

Could you report Tb Ino1 Tm Shift [˚C] for every entry in the following list?
1. CC(=O)Nc1ccc2c(c1)CCC2=O
2. NCc1cccc(CN2CCCC2)c1
3. Cc1nn(C)c2sc(CO)cc12
4. COC(=O)c1cccc(CN)c1.Cl
5. Cn1nc(C(C)(C)C)cc1N
6. CC(=O)c1cc(C)ccc1O [compound 184, 1‐(2‐hydroxy‐5‐methylphenyl)ethan‐1‐one]
7. OCc1cc(F)cc2c1OCOC2
8. NC(=S)c1cccc2c1OCCO2

0.21
0.03
0.35
0.22
0.15
0.14
0.01
0.18

Could you report Tb Ino1 Tm Shift [˚C] for every entry in the following list?
1. CC(C)(N)CN1CCCC1
2. CCOC(=O)c1c(N)sc(C)c1C
3. OCc1ccc(CN2CCCC2)cc1

1: 0.13; 2: 1.47; 3: 0.05

Could you report Tb Ino1 Tm Shift [˚C] for every entry in the following list?
1. COc1c(C(=O)O)csc1Cl
2. CC(=O)Oc1ccc(C)c2c1CCC2
3. ON=C1CCCc2ccccc21 [compound 279, 1,2,3,4‐tetrahydronaphthalen‐1‐one oxime]
4. Nc1ccc2c(c1)CCCC2=O
5. CNCc1cc(-c2ccccc2)nn1C
6. COC(=O)c1sccc1O [compound 247, methyl 3‐hydroxythiophene‐2‐carboxylate]
7. Cn1nc(-c2cccs2)cc1N

[1.07, 0.01, 0.76, 0.82, 0.5, 0.2, 1.1]

Could you report Tb Ino1 Tm Shift [˚C] for every entry in the following list?
1. OCC1CNc2ccccc2O1 (centres unmarked)
2. Cc1ccc(C#N)c(=O)[nH]1
3. CN1CCc2c(sc(N)c2C#N)C1
4. Cc1ccc(C)c(C(O)C(=O)O)c1 (centres unmarked)
5. Nc1ccc2oc3c(c2c1)CCCC3

[0.56, 0.22, 1.39, 0.02, 0.2]

Could you report Tb Ino1 Tm Shift [˚C] for every entry in the following list?
1. Cc1cc(C(=O)O)c2cc(F)ccc2n1
2. Cn1nc(-c2cccs2)cc1CO
3. O=C1COc2cc(O)ccc21 [compound 182, 6‐hydroxy‐2,3‐dihydrobenzo[b]furan‐3‐one]
4. CC1(C(=O)O)CC2C=CC1C2 (centres unmarked)
5. CC(=O)c1cc(F)cc(F)c1O
6. CC(=O)Nc1cc(C)ccc1O [compound 303, N1‐(2‐hydroxy‐5‐methylphenyl)acetamide]
7. N#Cc1scc2c1OCCO2
8. N#CCOc1ccc(C(F)(F)F)cn1

1. 0.5
2. 0.36
3. 0.92
4. 0.08
5. 1.29
6. 0.15
7. 0.12
8. 0.24

Could you report Tb Ino1 Tm Shift [˚C] for every entry in the following list?
1. CC(=O)c1sc(C)nc1C
2. C#CCN1CCS(=O)(=O)CC1
3. CN(C)CCOc1ccccc1CO

1. 0.37
2. 0.32
3. 0.13
